Target: Ferroportin (Homo sapiens)
Sequence (Q9NP59 whole entry): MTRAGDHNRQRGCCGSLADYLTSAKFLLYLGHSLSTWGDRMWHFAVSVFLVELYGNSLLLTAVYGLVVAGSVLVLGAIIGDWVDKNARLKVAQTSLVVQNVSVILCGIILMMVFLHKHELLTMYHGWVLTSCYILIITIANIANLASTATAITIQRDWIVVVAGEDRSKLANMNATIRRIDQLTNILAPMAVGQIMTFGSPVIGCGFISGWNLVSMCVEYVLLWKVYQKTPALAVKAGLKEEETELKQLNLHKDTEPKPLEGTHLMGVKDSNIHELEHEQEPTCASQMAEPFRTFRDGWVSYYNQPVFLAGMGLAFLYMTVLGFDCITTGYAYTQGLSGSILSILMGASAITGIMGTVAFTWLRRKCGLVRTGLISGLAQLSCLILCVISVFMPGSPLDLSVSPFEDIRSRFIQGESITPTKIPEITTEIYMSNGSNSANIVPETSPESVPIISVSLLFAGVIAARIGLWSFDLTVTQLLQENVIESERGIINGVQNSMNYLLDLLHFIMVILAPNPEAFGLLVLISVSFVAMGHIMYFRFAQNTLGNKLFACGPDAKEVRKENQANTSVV
Experiment: Induction of human ferroportin degradation expressed in HEK293 cells after 24 hrs by flow cytometry
ENDPOINT_LABEL: EC50 (nM)
Write down the numeric answer in nM and omit the unit.

Some solved cases for reference:
CCCCCCCCCCCCCCCCNC(=O)CN(CC(N)=O)C(=O)CCCCCNC(=O)[C@H](Cc1ccccc1)NC(=O)[C@H](CCCNC(=N)N)NC(=O)[C@H](CS/C(=C\S(N)(=O)=O)c1ccccc1)NC(=O)[C@H](CCCNC(=N)N)NC(=O)C[C@@H]1CCCN1C(=O)[C@@H](NC(=O)[C@H](Cc1cnc[nH]1)NC(=O)[C@@H](NC(=O)CNC(=O)CO)[C@@H](C)O)C(c1ccccc1)c1ccccc1 = 34
CCCCCCCCCCCCCCCCNC(=O)CN(CC(N)=O)C(=O)CCCCCNC(=O)[C@H](Cc1ccccc1)NC(=O)[C@H](CCCNC(=N)N)NC(=O)[C@H](CS/C=C\C(=O)O)NC(=O)[C@H](CCCNC(=N)N)NC(=O)C[C@@H]1CCCN1C(=O)[C@@H](NC(=O)[C@H](Cc1cnc[nH]1)NC(=O)[C@@H](NC(=O)CNC(=O)CO)[C@@H](C)O)C(c1ccccc1)c1ccccc1 = 218

Field: next compound
Exam item: For the compound shown here, CCCCCCCCCCCCCCCCNC(=O)CN(CC(N)=O)C(=O)CCCCCNC(=O)[C@H](Cc1ccccc1)NC(=O)[C@H](CCCNC(=N)N)NC(=O)[C@H](CS/C(=C\C(N)=O)C(N)=O)NC(=O)[C@H](CCCNC(=N)N)NC(=O)C[C@@H]1CCCN1C(=O)[C@@H](NC(=O)[C@H](Cc1cnc[nH]1)NC(=O)[C@@H](NC(=O)CNC(=O)CO)[C@@H](C)O)C(c1ccccc1)c1ccccc1 , give the reported EC50.
Marked response: 8.4
